Origin of the recorded values: the NIST ThermoML archive (doi:10.1007/s10765-009-0622-2)

Listed compounds paired with reported viscosity
# Condition label: 298.15 K; 101.33 kPa; Liquid
Numbers after ± are expanded uncertainties.

# Molecule smiles, viscosity
data = [
    ("CCCCCC", "0.2973 ± 0.0062 mPa·s"),
    ("Cc1ccccc1C", "0.7506 ± 0.013 mPa·s"),
    ("CCc1ccccc1", "0.6369 ± 0.011 mPa·s"),
    ("Cc1ccc(C)cc1", "0.5999 ± 0.011 mPa·s"),
    ("Cc1cccc(C)c1", "0.583 ± 0.01 mPa·s"),
]

----------
# mass density listing for each entry below
# Condition label: 298.15 K; 101.33 kPa; Liquid

# Compound, mass density (kg/m3)
records = [
    ("Cc1ccccc1C [1,2-dimethylbenzene]", 874.89),
    ("CCCCCC [hexane]", 654.7),
    ("Cc1ccc(C)cc1 [1,4-dimethylbenzene]", 856.51),
    ("CCc1ccccc1 [ethylbenzene]", 862.37),
    ("Cc1cccc(C)c1 [1,3-dimethylbenzene]", 859.78),
]
